Hello, the source for this data is the kinase profiling compilation of Christmann-Franck et al. (2016), in case you need it.

target: PRKCZ (human) (UniProt Q05513); experiment: radiometric filter-binding kinase assay; conditions: compound 0.01 µM
Sequence (Q05513 whole entry, looked up): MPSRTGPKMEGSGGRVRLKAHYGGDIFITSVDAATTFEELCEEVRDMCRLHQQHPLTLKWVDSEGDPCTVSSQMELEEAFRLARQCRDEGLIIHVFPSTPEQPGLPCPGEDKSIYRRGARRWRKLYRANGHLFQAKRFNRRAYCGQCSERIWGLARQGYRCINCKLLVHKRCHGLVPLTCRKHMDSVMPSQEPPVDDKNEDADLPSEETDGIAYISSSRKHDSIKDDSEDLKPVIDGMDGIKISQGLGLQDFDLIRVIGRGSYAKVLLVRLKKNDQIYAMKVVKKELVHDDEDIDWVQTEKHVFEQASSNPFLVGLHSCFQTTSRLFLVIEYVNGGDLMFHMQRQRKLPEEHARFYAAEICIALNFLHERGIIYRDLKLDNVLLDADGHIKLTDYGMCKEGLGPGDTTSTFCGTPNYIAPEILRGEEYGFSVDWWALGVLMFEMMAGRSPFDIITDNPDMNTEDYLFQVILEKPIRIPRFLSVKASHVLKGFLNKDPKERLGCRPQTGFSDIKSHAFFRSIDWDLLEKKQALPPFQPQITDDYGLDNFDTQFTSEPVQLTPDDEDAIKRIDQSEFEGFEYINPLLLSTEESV
Each entry below lists one item and its recorded residual activity value.

compound	units-of-measure	residual activity
CNC(=O)C1[C@H]2O[C@@](C)([C@@H]1N)n1c3ccccc3c3c4c(c5c6ccccc6n2c5c31)C(=O)NC4 (stereo partly specified)	%	110
COc1cc(O)c2c(c1)[C@H]1OC1C[C@H](O)[C@H](O)C(=O)/C=C\C[C@H](C)OC2=O (stereo partly specified)	%	97
O=C(Nc1nc2cc(C(F)(F)F)cc(NC3CC3)n2n1)c1cccnc1	%	96
COc1ccc(N(C(=O)Nc2c(C)cccc2C)c2cc(Nc3ccc(N4CCN(C)CC4)cc3)ncn2)c(OC)c1	%	97
CNc1nc(-c2ccc3c(N)n[nH]c3c2)cc(N2C[C@@H](C(=O)NC3CCCCC3)CC[C@H]2C)n1	%	113
C/C(=C1/C(=O)Nc2ccc(NC(N)=O)cc21)c1ccc[nH]1	%	84

###

target: UniProt:Q12851; experiment: radiometric filter-binding kinase assay; settings: compound 10.0 µM
Sequence (Q12851 whole entry, looked up): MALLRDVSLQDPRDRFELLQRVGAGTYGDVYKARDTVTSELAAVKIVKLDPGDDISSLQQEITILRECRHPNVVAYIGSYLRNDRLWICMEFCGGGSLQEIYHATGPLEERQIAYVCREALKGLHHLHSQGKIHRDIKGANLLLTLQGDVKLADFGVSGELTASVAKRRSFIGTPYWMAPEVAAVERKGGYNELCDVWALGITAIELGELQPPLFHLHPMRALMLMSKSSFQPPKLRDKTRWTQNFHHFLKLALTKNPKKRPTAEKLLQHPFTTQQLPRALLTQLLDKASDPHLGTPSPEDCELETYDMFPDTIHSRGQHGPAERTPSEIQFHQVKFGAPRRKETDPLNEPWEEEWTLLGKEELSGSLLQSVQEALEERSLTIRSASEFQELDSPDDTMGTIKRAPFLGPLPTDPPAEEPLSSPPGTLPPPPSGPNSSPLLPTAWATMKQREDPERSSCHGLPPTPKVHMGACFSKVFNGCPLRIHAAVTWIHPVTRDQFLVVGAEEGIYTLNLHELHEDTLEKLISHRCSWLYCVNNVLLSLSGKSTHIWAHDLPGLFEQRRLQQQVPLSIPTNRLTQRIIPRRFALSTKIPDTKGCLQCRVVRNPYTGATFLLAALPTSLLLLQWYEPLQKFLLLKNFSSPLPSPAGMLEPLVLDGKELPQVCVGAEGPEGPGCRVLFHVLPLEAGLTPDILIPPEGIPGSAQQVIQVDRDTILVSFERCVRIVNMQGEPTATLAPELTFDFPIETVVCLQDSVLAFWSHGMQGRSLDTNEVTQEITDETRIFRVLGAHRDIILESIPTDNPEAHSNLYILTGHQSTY
Each entry below lists one item and its recorded residual activity value.

compound	assayed-target	units-of-measure	residual activity
CCNc1nc(Nc2cc(F)c(C(=O)N3CCOCC3)cc2OC)ncc1C(F)(F)F	UniProt:Q12851	%	28
Nc1cccc2c1CN(C1CCC(=O)NC1=O)C2=O (stereo not given)	UniProt:Q12851	%	114
O=c1c(O)c(-c2ccc(O)c(O)c2)oc2cc(O)c(O)c(O)c12	UniProt:Q12851	%	23
O=C(Nc1ccccc1-c1cn2c(CN3CCNCC3)csc2n1)c1cnc2ccccc2n1	UniProt:Q12851	%	99
CNc1nc(-c2ccc3c(N)n[nH]c3c2)cc(N2C[C@@H](C(=O)NC3CCCCC3)CC[C@H]2C)n1	UniProt:Q12851	%	86
CCCCCc1ccc(/C=C/[C@H](O)[C@@H](CO)NC)cc1	UniProt:Q12851	%	71
NS(=O)(=O)OC[C@@H]1C[C@@H](n2ccc3c(N[C@H]4CCc5ccccc54)ncnc32)C[C@@H]1O	UniProt:Q12851	%	88
O=C(O)c1ccc(-c2c[nH]c3ncc(-c4ccccc4)cc23)cc1C1CCCC1	UniProt:Q12851	%	1
N#Cc1c(O)c2c(-c3ccc(-c4ccccc4O)cc3)csc2[nH]c1=O	UniProt:Q12851	%	76
NC(=O)c1c(NC(=O)C2CC2)sc2c1CCCC2	UniProt:Q12851	%	17

###

Each entry below lists one item and its recorded residual activity value.
biological target: IGF1R (human) (UniProt P08069); assay: radiometric filter-binding kinase assay; conditions: compound 0.1 µM
Sequence (P08069 whole entry, looked up): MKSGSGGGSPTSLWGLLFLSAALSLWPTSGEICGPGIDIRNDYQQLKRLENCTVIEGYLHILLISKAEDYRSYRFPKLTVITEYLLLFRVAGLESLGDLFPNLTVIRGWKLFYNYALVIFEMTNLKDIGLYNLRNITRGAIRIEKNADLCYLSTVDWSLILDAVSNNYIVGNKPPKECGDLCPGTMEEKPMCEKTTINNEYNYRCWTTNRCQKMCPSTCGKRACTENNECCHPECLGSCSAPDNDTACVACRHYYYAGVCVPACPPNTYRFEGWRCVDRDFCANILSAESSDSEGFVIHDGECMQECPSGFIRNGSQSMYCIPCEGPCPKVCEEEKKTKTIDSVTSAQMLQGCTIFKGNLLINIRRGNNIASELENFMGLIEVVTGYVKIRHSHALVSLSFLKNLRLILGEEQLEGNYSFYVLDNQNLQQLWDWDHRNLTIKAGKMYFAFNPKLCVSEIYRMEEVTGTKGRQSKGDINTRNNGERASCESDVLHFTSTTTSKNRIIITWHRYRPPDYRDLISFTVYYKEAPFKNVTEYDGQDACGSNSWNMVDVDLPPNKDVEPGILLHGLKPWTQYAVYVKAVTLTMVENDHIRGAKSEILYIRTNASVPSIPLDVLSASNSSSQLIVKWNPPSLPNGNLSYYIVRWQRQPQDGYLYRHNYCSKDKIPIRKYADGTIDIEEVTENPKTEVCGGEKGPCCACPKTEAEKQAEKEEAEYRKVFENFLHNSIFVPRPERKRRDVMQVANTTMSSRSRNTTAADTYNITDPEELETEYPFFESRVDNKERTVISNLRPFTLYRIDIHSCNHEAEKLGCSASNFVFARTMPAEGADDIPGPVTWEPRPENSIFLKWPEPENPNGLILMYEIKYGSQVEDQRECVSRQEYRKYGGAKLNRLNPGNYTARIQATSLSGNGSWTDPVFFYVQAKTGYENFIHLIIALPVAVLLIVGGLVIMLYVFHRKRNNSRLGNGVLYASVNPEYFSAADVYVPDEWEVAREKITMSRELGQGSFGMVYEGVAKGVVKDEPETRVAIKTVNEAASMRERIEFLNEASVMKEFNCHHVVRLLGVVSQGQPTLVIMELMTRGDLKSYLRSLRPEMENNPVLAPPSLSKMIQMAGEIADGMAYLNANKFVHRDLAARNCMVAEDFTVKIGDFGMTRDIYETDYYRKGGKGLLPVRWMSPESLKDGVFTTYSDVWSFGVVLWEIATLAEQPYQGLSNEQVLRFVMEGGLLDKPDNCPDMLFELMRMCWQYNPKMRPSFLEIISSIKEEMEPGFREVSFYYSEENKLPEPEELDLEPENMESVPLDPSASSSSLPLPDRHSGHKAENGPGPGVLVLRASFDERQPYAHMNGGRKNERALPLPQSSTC

compound	residual activity / %
COc1cc(O)c2c(c1)[C@H]1OC1C[C@H](O)[C@H](O)C(=O)/C=C\C[C@H](C)OC2=O (some centres undefined)	100
CC1=C(CO)C(=O)O[C@@H]([C@@H](C)[C@H]2CC[C@H]3[C@@H]4C[C@H]5O[C@]56[C@@H](O)C=CC(=O)[C@]6(C)C4CC[C@]23C)C1 (some centres undefined)	105
CCCCCc1ccc(/C=C/[C@H](O)[C@@H](CO)NC)cc1	87
Cc1ccc(Sc2cnc(Nc3cccc(Br)n3)s2)cc1C(=O)N1CCN(C(=O)CN)CC1	2
NC(=O)c1cc2c(-c3cccc(-c4ccccc4)c3)cnc(N)c2s1	113
C/C(=C1/C(=O)Nc2ccc(NC(N)=O)cc21)c1ccc[nH]1	94
c1ccc2c(-c3cnn4cc(-c5ccc(N6CCNCC6)cc5)cnc34)ccnc2c1	112
CCc1cncnc1N1CCN(Cc2nc3cc(C(F)(F)F)ccc3[nH]2)CC1	72
O=C(NCCCNc1nc(Nc2cccc(CN3CCOCC3)c2)ncc1C1CC1)C1CCC1	90
Cc1cccc(-c2nn(C(=S)Nc3ccccc3)cc2-c2ccnc3ccccc23)n1	97
O=C(Nc1ccccc1-c1cn2c(CN3CCNCC3)csc2n1)c1cnc2ccccc2n1	92
CN1CCN(CCOc2cc(OC3CCOCC3)c3c(Nc4c(Cl)ccc5c4OCO5)ncnc3c2)CC1	97
C=CC(=O)N1CCC[C@@H](n2nc(-c3ccc(Oc4ccccc4)cc3)c3c(N)ncnc32)C1	95
NC(=O)c1cc(-c2ccnc(NC3CCCCC3)c2)nc(N2CCNCC2)c1	97
COc1cc(O)c2c(c1)/C=C/C[C@H](O)[C@H](O)C(=O)/C=C\C[C@H](C)OC2=O	100
CCn1c(-c2nonc2N)nc2cncc(CNC3CCNCC3)c21	96
CNC(=O)C1[C@H]2O[C@@](C)([C@@H]1N)n1c3ccccc3c3c4c(c5c6ccccc6n2c5c31)C(=O)NC4 (some centres undefined)	64
O=C(Nc1nc2cc(C(F)(F)F)cc(NC3CC3)n2n1)c1cccnc1	89
O=C(O)c1ccc(-c2c[nH]c3ncc(-c4ccccc4)cc23)cc1C1CCCC1	100
